- Test system: T1, human amylin receptor 3 (AMY3) (human, UniProt P30988 25-474; O60896 24-148)
- T1 sequence (looked up) 1: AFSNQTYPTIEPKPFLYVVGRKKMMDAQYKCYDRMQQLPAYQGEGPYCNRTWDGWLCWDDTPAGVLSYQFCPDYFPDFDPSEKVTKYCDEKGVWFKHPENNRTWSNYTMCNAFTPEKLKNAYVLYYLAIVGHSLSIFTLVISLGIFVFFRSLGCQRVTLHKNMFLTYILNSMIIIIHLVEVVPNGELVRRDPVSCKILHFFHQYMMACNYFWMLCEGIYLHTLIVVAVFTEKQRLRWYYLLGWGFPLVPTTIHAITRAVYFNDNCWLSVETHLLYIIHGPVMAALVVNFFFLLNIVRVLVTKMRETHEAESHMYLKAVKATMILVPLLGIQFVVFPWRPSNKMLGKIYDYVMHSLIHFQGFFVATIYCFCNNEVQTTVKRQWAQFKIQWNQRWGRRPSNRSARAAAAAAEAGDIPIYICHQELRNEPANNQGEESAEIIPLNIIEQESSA
- T1 sequence (looked up) 2: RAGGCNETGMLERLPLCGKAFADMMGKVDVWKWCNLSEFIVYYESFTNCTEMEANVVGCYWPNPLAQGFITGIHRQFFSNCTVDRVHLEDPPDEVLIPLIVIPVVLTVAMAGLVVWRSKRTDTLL
- Assay text: cell-based or functional assay
No end group written: not given here.
# maps each entry to its EC50 (nM), cAMP accumulation (HTRF)
Please respond with the number in nM and leave the unit unwritten.

{"columns": ["Binder", "Unit string", "EC50 (nM), cAMP accumulation (HTRF)"],
 "data": [
  ["CNTATCATQRLANFLVHSSNNFGK(mPEG40KD)ILPPTNVGSNTY-NH2 (ends and bridges not checked, also called Compound 33) [Cmpd 33, [K^25(mPEG40KD)]-Cmpd 15]", "nM", 0.126]
]}

INPUT: What does the data say about its EC50 (nM), cAMP accumulation (HTRF)? Entry: CNTATCATQRLANFLVHSSNNFGPILPPTNVGK(mPEG40KD)NTY-NH2 (ends and bridges not checked, also called Compound 41) [Cmpd 41, [K^34(mPEG40KD)]-Cmpd 38]
OUTPUT: 0.034
